Value source: BindingDB's records for doi:10.1021/acschembio.6b00747

Record type: Kd measurement. Applies to: Endoplasmin (Homo sapiens, UniProt P14625)
assayReadout: Kd

NC(=O)c1ccc(-n2cccc2CCc2ccccc2)cc1NC1CCC(O)CC1 (stereo not drawn) : > 25 µM
NC(=O)c1ccc(-n2cccc2Cc2cccc(O)c2)cc1NC1CCC(O)CC1 (stereo not drawn) : > 25 µM
NC(=O)c1ccc(-n2cccc2Cc2ccc(Cl)cc2)cc1NC1CCC(O)CC1 (stereo not drawn) : > 25 µM
